Each recorded value in this set is attributed to paper PMC10988762.

In this section, each of the molecules is paired with its reported hemolysis at 24 h, 5 x P. falciparum 3D7-IC50.
Assay: in vitro
Details: human, uninfected RBCs (red blood cells), 1% hematocrit
Answer format: number, then unit.

As a guide, the following entries are already answered.
- molecule: "Cn1nccc1Nc1nccc(-c2cc3c(s2)C(C)(C)N(CCN2CCOCC2)C3=O)n1 [LY3214996]"
  result: "-1%"
- molecule: "CCCCCCCCc1ccc(CCC(N)(CO)CO)cc1 [FTY720]"
  result: "4%"

Entry CN1CCN(c2nc(C3=C(c4c[nH]c5ccccc45)C(=O)NC3=O)c3ccccc3n2)CC1 [Sotrastaurin] needs its hemolysis at 24 h, 5 x P. falciparum 3D7-IC50 filled in; supply it.
-7%
